The entries below come with measured GI50 values attached.
# System: DMS-114
# ASSAY COMMENT: NCI tumour cell line growth inhibition, 48 h
Calls of active or inactive are those of the source. Cut-off read from the data, not from the text of the source: active = GI50 up to about 1.1 µM and inactive = higher.

{"columns": ["MOLECULE", "GI50"],
 "data": [
  ["OCC1CC2CC1C1(C2)OCCO1 (stereo not given)", "> 100 µM (inactive)"],
  ["COc1ccc(C(O)c2cc(OC)c(OC)c(OC)c2)cc1 (stereo not given)", "6.84 µM (inactive)"],
  ["O/N=C1\\C(=C\\c2ccc3c(c2)OCCO3)CCCC1C(NO)c1ccc2c(c1)OCCO2 (stereo not given)", "20.1 µM (inactive)"],
  ["CCOC(=O)C1(Br)S(=O)(=O)OCCOS1(=O)=O", "> 100 µM (inactive)"],
  ["CCC1(Br)C(=O)NC(=O)N(C2CC(O)C(CO)O2)C1N=[N+]=[N-] (stereo not given)", "72.1 µM (inactive)"],
  ["COc1cc(/C=C(\\C#N)C(N)=C(C#N)C#N)cc(O)c1O", "47 µM (inactive)"],
  ["CC1=C(C(=O)Nc2ccccc2)C(c2ccc(C3C(C(=O)Nc4ccccc4)=C(C)NC(C)=C3C(=O)Nc3ccccc3)cc2)C(C(=O)Nc2ccccc2)=C(C)N1", "3.83 µM (inactive)"],
  ["CCN(CC)CCCC(C)Nc1c2ccc(Cl)cc2nc2cc(Cl)ccc12 (stereo not given)", "4.41 µM (inactive)"],
  ["c1ccc(-c2csc3ncn4cnnc4c23)cc1", "57.9 µM (inactive)"],
  ["CCCCCC/C=C1\\CCC(CN(C)C)C1=O (stereo not given)", "4.24 µM (inactive)"],
  ["CC(=O)Nc1ccc(SC#N)c2c(NC(C)=O)cccc12", "43.1 µM (inactive)"],
  ["CC(C)(C)CC(C)(C)c1cc2c(O)c(c1)Cc1cc(C(C)(C)CC(C)(C)C)cc(c1O)Cc1cc(C(C)(C)CC(C)(C)C)cc(c1O)Cc1cc(C(C)(C)CC(C)(C)C)cc(c1O)Cc1cc(C(C)(C)CC(C)(C)C)cc(c1O)C2", "> 100 µM (inactive)"],
  ["Cc1ccccc1C(=O)c1cc(O)ccc1O", "45.7 µM (inactive)"],
  ["Clc1ccc(-c2c(C3=NCCCN3)nnn2-c2ccccc2)cc1", "47.2 µM (inactive)"],
  ["Nc1nccc2c1ncn2C1C=C(CO)C(O)C1O (stereo not given)", "13.9 µM (inactive)"],
  ["COc1ccccc1OCC(COC(=O)Nc1ccccc1)OC(=O)Nc1ccccc1 (stereo not given)", "47.1 µM (inactive)"],
  ["CC(C)c1ccc(/C=C/c2cc(C(=O)NNC(=O)NC3CCCCC3)nc(S)n2)cc1", "> 100 µM (inactive)"],
  ["N#CC(C(=O)CCCC(=O)Nc1ccccc1[N+](=O)[O-])c1c(Cl)cccc1Cl (stereo not given)", "> 100 µM (inactive)"],
  ["COc1cccc2c1C(=O)c1c(O)c3c(c(O)c1C2=O)C[C@@](O)(C(=O)CN1CCOCC1)C[C@@H]3OC1CC(N)C(O)C(C)O1 (stereo not given in full)", "3.52 µM (inactive)"],
  ["CC(C)C(=O)N1Cc2cc(Cl)cc(Cl)c2OC(=O)c2ccccc21", "30.1 µM (inactive)"]
]}

* * *

# Test system: OVCAR-8
# ASSAY COMMENT: NCI tumour cell line growth inhibition, 48 h
Structures can show the parent of a compound that is named as a salt. Active and inactive are the calls of the source. Rule as the data show it: active = GI50 up to about 1.1 µM and inactive = higher.
Classes used: active, inactive

{"columns": ["MOLECULE", "LABEL VALUE"],
 "data": [
  ["CCc1n[nH]c(=O)n1NC(=O)c1ccccc1C(=O)O", "inactive"],
  ["COc1nc2c(OC)cccc2c(OC)c1C=O", "inactive"],
  ["CCOC(=O)CCCN", "inactive"],
  ["COc1cc([C@@H]2c3cc4c(c(O)c3C[C@H]3COC(=O)[C@@H]32)OCO4)cc(OC)c1O", "active"],
  ["CC(C)(Cl)C(Br)CCC(C)(Cl)C(Br)CBr (stereo not drawn)", "inactive"],
  ["CCN(CC)CCCC(C)Nc1c2ccc(Cl)cc2nc2cc(Cl)ccc12 (stereo not drawn)", "inactive"],
  ["COC(=O)/C=C/CC(=O)NS(C)(=O)=O", "inactive"],
  ["C/C=C/C(=O)[C@@H](O)C(C)C", "inactive"],
  ["Nc1c(Br)c(=O)[nH]c(=O)n1COCCO", "inactive"],
  ["Clc1ccc2oc(CCc3ccccc3)nc2c1", "inactive"],
  ["COC(=O)c1c(C)cccc1C1CN=NC12Cc1cccc(C)c1C2=O (stereo not drawn)", "inactive"],
  ["CCOC(=O)c1c(N2CCCC2)[nH]c(=O)c(C(c2ccc(N(C)C)cc2)c2c(O)c(C(=O)OCC)c(N3CCCC3)[nH]c2=O)c1O", "inactive"],
  ["Nc1ccc2c(=O)cc(-c3ccc(Br)s3)[nH]c2n1", "inactive"],
  ["O=[N+]([O-])C(/C(Cl)=C(\\Cl)Br)=C(/Cl)SCc1ccccc1", "inactive"],
  ["Cc1nc2c(ccc3[nH]c4ccccc4c32)s1", "inactive"],
  ["CC(C)=CCc1cc(C2COc3cc4c(c(O)c3C2=O)C=CC(C)(C)O4)c(O)cc1O (stereo not drawn)", "inactive"],
  ["Cc1cc(NS(=O)(=O)c2ccc(NC(=O)c3ccc4nc5ccccc5c(Nc5ccc(S(N)(=O)=O)cc5)c4c3)cc2)no1", "inactive"],
  ["CCOC(=O)C1(Br)S(=O)(=O)OCCOS1(=O)=O", "inactive"],
  ["CC(=O)/C(=C/NC(=S)Nc1ccccc1)C(=O)Nc1ccccc1C", "inactive"],
  ["Cc1ccc2c(c1)C(=S)N1CSCC1c1nncn1-2 (stereo not drawn)", "inactive"],
  ["CC(C)C[C@H]1C(=O)N2CCC[C@H]2[C@]2(O)O[C@](NC(=O)[C@@H]3C=C4c5cccc6[nH]c(Br)c(c56)C[C@H]4N(C)C3)(C(C)C)C(=O)N12 [BROMOCRIPTINE MESYLATE]", "inactive"],
  ["CN(C)CCCNc1ncnc2[nH]cnc12", "inactive"],
  ["CC1=C(/C=C/C(C)=C/C2CC(N(C)C)=CC(=O)O2)C(C)(C)CCC1 (stereo not drawn)", "inactive"],
  ["O=C(O)c1ccc2c(c1)Cc1cc([N+](=O)[O-])ccc1-2", "inactive"],
  ["C/C=C1\\C[C@@H]2C(OC)Nc3cc(O)c(OC)cc3C(=O)N2C1 (stereo partly drawn)", "active"],
  ["C=C1C(=O)[C@@]23CC[C@H]4[C@@](C)(CCC[C@@]4(C)C(=O)OC)[C@@H]2CC[C@]1(O)C3", "inactive"],
  ["COc1ccccc1OCC(COC(=O)Nc1ccccc1)OC(=O)Nc1ccccc1 (stereo not drawn)", "inactive"],
  ["S=c1ssc2c3ssc(=S)c3n(Cc3ccccc3)c12", "inactive"],
  ["CC1CCCC2(O1)OC1CC(=O)OC1C1=C2C(=O)c2ccccc2C1=O (stereo not drawn)", "inactive"],
  ["c1ccc(/N=C2\\SC(=NNc3ccccc3)S\\C2=N/c2ccccc2)cc1", "inactive"],
  ["COc1ccc(CCc2cc(OC)c(OC)c(OC)c2)cc1", "active"],
  ["CC(=O)OC12COC1CC(O)C1(C)C(=O)C(O)C3=C(C)C(O)CC(O)(C(OC(=O)c4ccccc4)C21)C3(C)C (stereo not drawn)", "inactive"],
  ["COC/C=C\\[C@@]1(O)CCCC[C@@H]1CC(OC)OC", "inactive"],
  ["CCOc1ccc(/C=C2\\NC(=S)N(/C=C3\\C(=O)Oc4ccccc4C3=O)C2=O)cc1", "inactive"],
  ["Oc1ccc(-c2cn3cc(C(F)(F)F)ccc3n2)cc1", "inactive"],
  ["CCCCCC(/C=N/NC(N)=S)C(O)(C(F)(F)F)C(F)(F)F (stereo not drawn)", "inactive"],
  ["O=C1C=C(c2c(O)ccc3ccccc23)c2ccccc2C1=O", "inactive"],
  ["Cc1c(C)c2ccc(OC(C)C(=O)O)cc2oc1=O (stereo not drawn)", "inactive"],
  ["Cc1ccc(-c2n[nH]c(=O)[nH]2)cc1[N+](=O)[O-]", "inactive"],
  ["COc1cc2cc(C(=O)N3CC(CCl)c4ccc([N+](C)(C)Cc5ccccc5[N+](=O)[O-])cc43)[nH]c2c(OC)c1OC (stereo not drawn)", "inactive"],
  ["O=C(O)CCNc1[nH]cnc2ncnc1-2", "inactive"],
  ["CC(=O)Nc1ccc(Nc2cc(=O)n(C)c(=O)[nH]2)cc1", "inactive"],
  ["Cc1cccc(NC(=O)CSc2nnc(-c3ccc(/N=C\\c4ccc(Cl)cc4)cc3)o2)c1", "inactive"]
]}
